# Test system: MS2 coat protein
# assay_name: apparent KD of MS2 coat protein; higher = weaker reporter binding
# conditions: Eterna round: R107; input ligand: arginine 13.2 mM
Reported apparent KD of MS2 coat protein is given for each of the following sequences.
Give the figure together with its unit, number first.

In the examples that follow, each entry is paired with its recorded apparent KD of MS2 coat protein.
>  <seq_text>
ACAUUUAACUGAAGGAGCGUGAUAUGUACAUGAGGAUCACCCAUGUCUUUCAUGUGAUUUUCACAGGUAGGUCGCAGACUAAUGA [JR_ExcArginiB_Sub003]

>  <apparent KD of MS2 coat protein>
11.8 nM

$$$$
>  <seq_text>
CUAUAUAUAAGAAGGAGCGACAUGAGGAUCACCCAUGUCUACCACGUCGAAAGACGCUCAUGUCAGGUAGGUCGCUUAUAUAUAG [Astros-Eli-mod1]

>  <apparent KD of MS2 coat protein>
108 nM

$$$$

From here, focus on the item given below.
### Prompt Answer with apparent KD of MS2 coat protein of CCUAUGCAGUCGGCCGCCACUGUACAUGAGGAUCACCCAUGUUCCAAAAUAAAAGGAACUGAAAUCAGGACCGGGACUGUAUAGG [Ex Tryptophan B 1] measured for MS2 coat protein.
### Response 29.4 nM

====

# Tested on: MS2 coat protein
# assay_name: apparent KD of MS2 coat protein; designed switch direction (-1 OFF switch, 1 ON switch): -1; higher = weaker reporter binding
# conditions: input ligand: FMN 200 uM
result_type: apparent KD of MS2 coat protein (µM)
I only need the number, in µM, no unit after it.

Known results for sequences:
>  <seq_text>
GGAUUCUCGCAAGGAUAUCGCUUACAUCCUAAGCGAGAAGGUGCUACCAACUUGAGGAUCACCCAAGUGACUUGGGCCUAAAUA [Mutated MS2 EX1.27] (Eterna round: R96, puzzle: Exclusion NG 1)

>  <target_desc>
MS2 coat protein

>  <result_type>
apparent KD of MS2 coat protein

>  <quantity_unit>
µM

>  <value_observed>
0.112

$$$$
>  <seq_text>
CACAUGUCAGGAUAUGGUCAAGACACAGAAUUAGCUGCGAGCCAGAAGGGACAUGAGGAUCACCCAUGUUCCUG [Eternabot (L1) Solution 58] (Eterna round: R97, puzzle: Exclusion 4)

>  <target_desc>
MS2 coat protein

>  <result_type>
apparent KD of MS2 coat protein

>  <quantity_unit>
µM

>  <value_observed>
0.0195

$$$$
>  <seq_text>
CUAAAUCAUGUAGGAUAUGCGUGGCAAAGCUAUGCAGAAGGACAUGAGGAUCACCCAUGUCAUUCCGUCUGGAGACAGACGGGA [Mat - Exclusion NG 1 - Mod of JL - D54] (Eterna round: R96, puzzle: Exclusion NG 1)

>  <target_desc>
MS2 coat protein

>  <result_type>
apparent KD of MS2 coat protein

>  <quantity_unit>
µM

>  <value_observed>
0.182

$$$$
>  <seq_text>
UAUAUAUAGUAAGGAUAUGUAUUUAUUUUAUCAACAGAAGGUACUGACAUGAGGAUCACCCAUGUUUUAGUGUGGGCAUGUAGA [JMF's solution 26] (Eterna round: R96, puzzle: Exclusion NG 1)

>  <target_desc>
MS2 coat protein

>  <result_type>
apparent KD of MS2 coat protein

>  <quantity_unit>
µM

>  <value_observed>
0.155

$$$$
>  <seq_text>
ACAAGCUUUUUGUUCGUCUUAUAAAAUCCUAAGAGGAAAACAUGAGGAUCACCCAUGUAACAAAGACGGACUCAUGU [Sesor Array 12 - Jieux - Sensor v3, turn-off variant 2] (Eterna round: R96, puzzle: Sensor v3, turn-off variant 2)

>  <target_desc>
MS2 coat protein

>  <result_type>
apparent KD of MS2 coat protein

>  <quantity_unit>
µM

>  <value_observed>
0.0115

$$$$
>  <seq_text>
AGUCCUAGUCAAGGAUAUACACCGAAGAAAUACGUAGAAGGUGACAUGAGGAUCACCCAUGUAGGGACUCUGGAAACAGAGGAA [Arordi] (Eterna round: R96, puzzle: Exclusion NG 1)

>  <target_desc>
MS2 coat protein

>  <result_type>
apparent KD of MS2 coat protein

>  <quantity_unit>
µM

>  <value_observed>
0.161

$$$$
>  <seq_text>
AAGCCUCAAGUUAGGAUAUUAAUAAGGCAAAUUAUUAAGAAGGGACAUGAGGAUCACCCAUGUAAAAUUCUCAC [Biedredi] (Eterna round: R97, puzzle: Brourd's mod of Exclusion 4)

>  <target_desc>
MS2 coat protein

>  <result_type>
apparent KD of MS2 coat protein

>  <quantity_unit>
µM

>  <value_observed>
0.14

$$$$
>  <seq_text>
UAAAAGCUAGGAUAUACAUGAGGAUCACCCAUGUAUUAGGGCAUGAAAUCGGUCCCACGUAGAAGGAGCGACAC [Dilaxeed] (Eterna round: R97, puzzle: Exclusion 3)

>  <target_desc>
MS2 coat protein

>  <result_type>
apparent KD of MS2 coat protein

>  <quantity_unit>
µM

>  <value_observed>
0.105

$$$$

### Prompt Return reported apparent KD of MS2 coat protein. Input sequence: ACAUCACAGCUAGGAUAUAUAUGACAUGAGGAUCACCCAUGUUGUCCCAUGUUGACGAAAACCGAAUAGAAGGAGCCACAGAUG [Ex NG2 #3] (Eterna round: R96, puzzle: Exclusion NG 2)
### Response 0.0913

====

# Tested on: K4 kissing-loop RNA reporter
# assay_name: apparent KD of K4 kissing-loop reporter; higher = weaker reporter binding
# conditions: Eterna round: R107; input ligand: tryptophan 2.4 mM
Decision: apparent KD of K4 kissing-loop reporter >= 200 nM yields true (1), all other cases yield false (0).

Completed entries (count: 3):
>  <seq_text>
AUGGGCGAGGUAACGUGGAUAUCUCGUCGCAAGGAUAUCUGGAAACAGAGAAGGUGCUACAUUACCGGCAGUGAUGUUGCUGACC

>  <discrete_label>
false (0)

$$$$
>  <seq_text>
GGAGUUACCUGGGAUACCAGUCGGAGUCCCAGAGCUCGGAGUGAUGUUCUGGGAUGUUUCGGCCCUUGGCAGCUCUGGGACUCCC [#2 Exclusion - Theophylline B Attempt #9 (HarryS)]

>  <discrete_label>
true (1)

$$$$
>  <seq_text>
CGCAGUGAUGUUGCGAGUAGCUACAGGGAAGGAGCGCUUUAGUAAGCAGGUAGGUCGCCCACGCAGUGAUGUUGCGUCAUAGGGU [Exclusion Arginine A GF 19]

>  <discrete_label>
false (0)

$$$$

Okay, next one:
### Prompt State whether the measured apparent KD of K4 kissing-loop reporter reaches 200 nM, counting equality as reaching it, for UAGUCCGAGUGAUGGUCAUCACGUGGCGGGCGAGGACCGGUACGGCCGCCACUCGACUUUGCAGUGAUGUUGCAAACCGGACAAU [Exclusion - Tryptophan A (Freestyle 21)]
### Response false (0)

====

# Test system: MS2 coat protein
# assay_name: apparent KD of MS2 coat protein; designed switch direction (-1 OFF switch, 1 ON switch): -1; higher = weaker reporter binding
# conditions: input ligand: none
Measured apparent KD of MS2 coat protein accompanies every entry in the list below.
Write it as a number; the unit nM goes unstated.

>  <seq_text>
AGGAGCCCACGGGCUCCAAAACAUGAGGAUCACCCAUGUCAGUAGGAUAUCAUGCUUUUCUGCUGUGAGAAGGGCUGAUGUGGC [Esededor] (Eterna round: R96, puzzle: Exclusion NG 3)

>  <quantity_unit>
nM

>  <apparent KD of MS2 coat protein>
49

$$$$

### Prompt Give the measured apparent KD of MS2 coat protein for CACCGUUACACAGGAUAUCUUACAUGAGGAUCACCCAUGUAAUAAAUGAGAAUUUCGAAUGUAAAAGAGAAGGGUGGAAUCGGC [Ostracism 66 - Jieux - Exclusion NG 2] (Eterna round: R96, puzzle: Exclusion NG 2)
### Response 30.3

====

# Tested on: K4 kissing-loop RNA reporter;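 further: bound reporter read as fluorescence of individual clusters on recovered sequencing chips by microscopy, with normalized cluster intensities fitted with a binding model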
# assay_name: apparent KD of K4 kissing-loop reporter; higher = weaker reporter binding
# conditions: Eterna round: R107; input ligand: none
Label scheme for apparent KD of K4 kissing-loop reporter: lower than 200 nM is not met, 200 nM and above is met.

>  <seq_text>
AGUGAUGUGGGAAGGAGCGGUAUAUGAAUUCAGUGAUGUUGAAGUGAUGCUGUAAUGAUGUGCCAGGUAGGUCGCCUAGAUGUUA [KL-XARG B26]

>  <discrete_label>
met

$$$$
>  <seq_text>
UAAGGGUUAUGUCCUCGGUGCGAAGAGCUCCGAGGACCGGUACGGCCGCCACUCGGAAGUUCUGAGUGAGGGAGUGAUGUUCCCU [Skye_Ex_TA]

>  <discrete_label>
met

$$$$
>  <seq_text>
GUCCAUGUCCUCAUUCGUGCACUGGACACCAAGGAUAUGUUUAUGGACAGAAGGUGGUUGGGUCAGUGAUGUUGAUAUAAUUAGU [theeternabot_exclusion_KL_FMN_A_24]

>  <discrete_label>
met

$$$$
>  <seq_text>
AUGCGCGCGGCGGCCGCCACUCGCAUGAGAGUGAUGUUCUCGCCGUGCCCGUAAGGGUGCGGUGUGAGGACCGGGCCGGGCUGCG [#2 Same State - Tryptophan B Attempt #20 (HarryS)]

>  <discrete_label>
met

$$$$

### Prompt Is it the case that AGACCCUGGUAGGAUACCAGCGGCAUGCAGUGCGAGAGAGCGUAGUGAUGUUACGAGACCCGCCCUUGGCAGCCUGGGAAUGUGU [theeternabot_exclusion_KL_Theo_B_50] has apparent KD of K4 kissing-loop reporter reaching or exceeding 200 nM?
### Response not met

Values compiled from the supplement of paper PMC9170038.
